# MEASUREMENT_TARGET: T1, DcR3 (UniProt O95407 30-300, limits assumed)
# T1 construct: the construct is not described; also called decoy receptor DcR3; TNFRSF6B
# T1 sequence (looked up): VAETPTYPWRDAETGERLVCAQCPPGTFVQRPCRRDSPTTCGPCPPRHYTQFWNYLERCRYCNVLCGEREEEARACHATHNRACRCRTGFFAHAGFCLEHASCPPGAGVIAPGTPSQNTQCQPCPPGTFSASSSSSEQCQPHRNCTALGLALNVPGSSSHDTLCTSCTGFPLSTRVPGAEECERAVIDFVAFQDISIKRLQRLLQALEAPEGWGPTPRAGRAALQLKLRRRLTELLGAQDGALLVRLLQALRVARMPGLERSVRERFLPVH
# ASSAY_PROTOCOL: ELISA, DcR3

- BINDER: "TL1W44 (His-TEV-TL1A P189K) (ligand, also called TL1W44 (P189K)) HHHHHHENLYFQGLKGQEFAPSHQQVYAPLRADGDKPRAHLTVVRQTPTQHFKNQFPALHWEHELGLAFTKNRMNYTNKFLLIPESGDYFIYSQVTFRGMTSECSEIRQAGRPNKPDSITVVITKVTDSYKEPTQLLMGTKSVCEVGSNWFQPIYLGAMFSLQEGDKLMVNVSDISLVDYTKEDKTFFGAFLL"
  Rel EC50: "12.8 ratio (head: nM)"
- BINDER: "TL1W85 (His-TEV-TL1A G124S) (ligand, also called TL1W85 (G124S)) HHHHHHENLYFQGLKGQEFAPSHQQVYAPLRADGDKPRAHLTVVRQTPTQHFKNQFPALHWEHELSLAFTKNRMNYTNKFLLIPESGDYFIYSQVTFRGMTSECSEIRQAGRPNKPDSITVVITKVTDSYPEPTQLLMGTKSVCEVGSNWFQPIYLGAMFSLQEGDKLMVNVSDISLVDYTKEDKTFFGAFLL"
  Rel EC50: "12.4 ratio (head: nM)"
- BINDER: "TL1W104 (His-TEV-TL1A T185L) (ligand, also called TL1W104 (T185L)) HHHHHHENLYFQGLKGQEFAPSHQQVYAPLRADGDKPRAHLTVVRQTPTQHFKNQFPALHWEHELGLAFTKNRMNYTNKFLLIPESGDYFIYSQVTFRGMTSECSEIRQAGRPNKPDSITVVITKVLDSYPEPTQLLMGTKSVCEVGSNWFQPIYLGAMFSLQEGDKLMVNVSDISLVDYTKEDKTFFGAFLL"
  Rel EC50: "4.2 ratio (head: nM)"
